Source of measurements: patent US20200239555A1

Listed here are binders together with their documented koff.
# Target of assay: T1, biotinylated native human ApoC3 (human, UniProt P02656 21-99, biotinylated (site not stated))
# T1 construct: also called biotinylated human ApoC3
# T1 sequence (P02656 21-99): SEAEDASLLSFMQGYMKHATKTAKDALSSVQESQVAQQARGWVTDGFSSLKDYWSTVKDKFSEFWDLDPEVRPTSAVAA
# Protocol description: SPR, IgG1 over biotinylated ApoC3 on SA chip, pH 7.4

Binder	Units of measure	koff
mAb18 (antibody, IgG1, V domains shown, Produced as full length IgG1 (kappa) in ExpiCHO-S cells; also called humanized anti-ApoC3 antibody mAb18) VH: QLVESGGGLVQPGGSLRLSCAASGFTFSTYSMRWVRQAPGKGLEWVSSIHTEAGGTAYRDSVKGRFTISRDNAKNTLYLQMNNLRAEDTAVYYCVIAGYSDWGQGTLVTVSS VL: DIVMTQSPLSLPVTPGEPASISCKTSQGLVHSGGKTYFYWFLQKPGQSPQQLIYQVSNRASGVPDRFTGSGSGTDFTLKISRVEAEDAGVYYCAHGTYYPHTFGQGTRLEIK	s⁻¹	0.000838
mAb17 (antibody, IgG1, V domains shown, Produced as full length IgG1 (kappa) in ExpiCHO-S cells; also called humanized anti-ApoC3 antibody mAb17) VH: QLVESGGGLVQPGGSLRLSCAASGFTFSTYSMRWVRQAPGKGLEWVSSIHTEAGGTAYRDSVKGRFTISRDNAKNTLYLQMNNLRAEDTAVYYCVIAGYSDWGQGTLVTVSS VL: DIVMTQSPLSLPVTPGEPASISCKTSQGLVHSGGKTYFYWFLQKPGQSPQQLIYQVSNRASGVPDRFTGSGSGTDFTLKISRVEAEDAGVYYCAQGTYYPHTFGQGTRLEIK	s⁻¹	2.33e-05
5E5VH12_VLWT human IgG1 (antibody, V domains shown) VH: QLQLVESGGGLVQPGGSLRLSCAASGFTFGTYSMRWVRQVPRKALEWVSSISTDGGGTAYRDSVKGRFTISRDNAKNTLYLQMNNLKPEDTAIYYCVIHGYSDWGQGTQVTVSS VL: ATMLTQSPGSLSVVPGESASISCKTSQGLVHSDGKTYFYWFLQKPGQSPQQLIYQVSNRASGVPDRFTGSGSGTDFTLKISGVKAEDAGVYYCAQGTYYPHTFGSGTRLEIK	s⁻¹	1.12e-05
